- System: kochia (Kochia scoparia)
- Assay text: Test A preemergence, kochia
- Assay type: in vivo
- Reported conditions: 125 g ai/ha, 0 to 100 scale (0 no effect, 100 complete control)
Endpoint label: Plant response rating, Kochia
Hey, just send me the number, nothing else.

Incoming: If you can, please state the reported Plant response rating, Kochia value of CN1CC(c2cccc(Oc3ncc(F)cn3)c2)C(C(=O)Nc2cccc(F)c2F)C1=O (single isomer, unassigned) .
Outgoing: 30

Incoming: Look up Plant response rating, Kochia for this molecule: O=C1NCC(c2cccc(OCc3ccco3)c2)C1C(=O)Nc1cccc(F)c1F (stereo not shown)
Outgoing: 0

Incoming: Fill blank: measured Plant response rating, Kochia of the molecule O=C1NCC(c2cccc(OCc3ccco3)c2)C1C(=O)Nc1ccccc1F (stereo not shown) is ____.
Outgoing: 0

Incoming: Using the record for O=C1NCC(c2cccc(Oc3ccc(F)cn3)c2)C1C(=O)Nc1ccccc1F (single isomer, unassigned) , report its Plant response rating, Kochia.
Outgoing: 20

Incoming: I have this molecule here, CN1CC(c2cccc(Oc3ccc(C(F)(F)F)cn3)c2)C(C(=O)Nc2cccc(F)c2F)C1=O (single isomer, unassigned) , and I need its recorded Plant response rating, Kochia.
Outgoing: 0

Incoming: Which Plant response rating, Kochia reading was recorded for the molecule CN1CC(c2cccc(Oc3ncc(F)cc3F)c2)C(C(=O)Nc2ccc(F)c(F)c2F)C1=O (single isomer, unassigned) ?
Outgoing: 40

# context switch: different molecule, same Plant response rating, Kochia
Incoming: For the molecule shown here, O=C1NCC(c2ccccc2Cn2ccc(C(F)(F)F)n2)C1C(=O)Nc1ccc(F)c(F)c1F (stereo not shown) , give the reported Plant response rating, Kochia.
Outgoing: 0
